Source: the NIST ThermoML archive (doi:10.1021/je0602723)

Experiment: activity coefficient (dimensionless); of the first substance listed, at infinite dilution; xn = mol fraction of the nth substance listed
Conditions: 312.4 K; Liquid; Chromatography; x1 = 0
Reported activity coefficient by item:
// no unit string in output, number only

See these solved cases before continuing.
>>> measured_value("CCCCCCCCCC [decane] + CCOS(=O)(=O)[O-].CCn1cc[n+](C)c1")
445
>>> measured_value("C1COCCO1 [1,4-dioxane] + CCOS(=O)(=O)[O-].CCn1cc[n+](C)c1")
2.1
>>> measured_value("CO [methanol] + CCOS(=O)(=O)[O-].CCn1cc[n+](C)c1")
0.41

Query block: Give activity coefficient for CCCCCC(=O)OC [methyl hexanoate] + CCOS(=O)(=O)[O-].CCn1cc[n+](C)c1
Result block: 19.2

Query block: Give activity coefficient for CC(C)(C)O [2-methylpropan-2-ol] + CCOS(=O)(=O)[O-].CCn1cc[n+](C)c1
Result block: 1.86

Query block: Give activity coefficient for CCCCCCCCC [nonane] + CCOS(=O)(=O)[O-].CCn1cc[n+](C)c1
Result block: 304

Query block: Give activity coefficient for CCCCCCC(=O)OC [methyl heptanoate] + CCOS(=O)(=O)[O-].CCn1cc[n+](C)c1
Result block: 28.4

Query block: Give activity coefficient for CCC(C)(C)O [2-methylbutan-2-ol] + CCOS(=O)(=O)[O-].CCn1cc[n+](C)c1
Result block: 2.44

----------
Test: activity coefficient (dimensionless); of the first substance listed, at infinite dilution; xn = mol fraction of the nth substance listed
Conditions: 354.2 K; Liquid; Chromatography; x1 = 0
measured parameter: activity coefficient
// no unit string in output, number only

See these solved cases before continuing.
>>> measured_value("CCCCCCC=O [heptanal] + CCOS(=O)(=O)[O-].CCn1cc[n+](C)c1")
11.4
>>> measured_value("C1COCCO1 [1,4-dioxane] + CCOS(=O)(=O)[O-].CCn1cc[n+](C)c1")
2.06
>>> measured_value("CCCCO [butan-1-ol] + CCOS(=O)(=O)[O-].CCn1cc[n+](C)c1")
1.42

Query block: Give activity coefficient for CO [methanol] + CCOS(=O)(=O)[O-].CCn1cc[n+](C)c1
Result block: 0.36

Query block: Give activity coefficient for CCCCCCO [hexan-1-ol] + CCOS(=O)(=O)[O-].CCn1cc[n+](C)c1
Result block: 3.27

----------
Assay: activity coefficient (dimensionless); of the first substance listed, at infinite dilution; xn = mol fraction of the nth substance listed
Details: 375.4 K; Liquid; Chromatography; x1 = 0
measured parameter: activity coefficient

>>> measured_value("CCCO [propan-1-ol] + CCOS(=O)(=O)[O-].CCn1cc[n+](C)c1")
0.87

Query block: Give activity coefficient for CCCCC(=O)OC [methyl pentanoate] + CCOS(=O)(=O)[O-].CCn1cc[n+](C)c1
Result block: 8.57

Query block: Give activity coefficient for CCCC(=O)OC [methyl butanoate] + CCOS(=O)(=O)[O-].CCn1cc[n+](C)c1
Result block: 6.26

Query block: Give activity coefficient for CC(C)=O [acetone] + CCOS(=O)(=O)[O-].CCn1cc[n+](C)c1
Result block: 1.54

----------
Assay: activity coefficient (dimensionless); of the first substance listed, at infinite dilution; xn = mol fraction of the nth substance listed
Conditions: 364.9 K; Liquid; Chromatography; x1 = 0
Reported activity coefficient by item:
// no unit string in output, number only

See these solved cases before continuing.
>>> measured_value("CCCO [propan-1-ol] + CCOS(=O)(=O)[O-].CCn1cc[n+](C)c1")
0.91
>>> measured_value("CCCCCCO [hexan-1-ol] + CCOS(=O)(=O)[O-].CCn1cc[n+](C)c1")
3.06
>>> measured_value("CCCCC(=O)OC [methyl pentanoate] + CCOS(=O)(=O)[O-].CCn1cc[n+](C)c1")
9.42

Query block: Give activity coefficient for CCCC(=O)OC [methyl butanoate] + CCOS(=O)(=O)[O-].CCn1cc[n+](C)c1
Result block: 6.58

Query block: Give activity coefficient for CCC(=O)OC [methyl propanoate] + CCOS(=O)(=O)[O-].CCn1cc[n+](C)c1
Result block: 3.86

Query block: Give activity coefficient for CCC(C)O (configuration not stated) [butan-2-ol] + CCOS(=O)(=O)[O-].CCn1cc[n+](C)c1
Result block: 1.42

Query block: Give activity coefficient for CCCC=O [butanal] + CCOS(=O)(=O)[O-].CCn1cc[n+](C)c1
Result block: 3.23

----------
Test: activity coefficient (dimensionless); of the first substance listed, at infinite dilution; xn = mol fraction of the nth substance listed
Details: 312.2 K; Liquid; Chromatography; x1 = 0
Rule for this label: t means activity coefficient is less than 20; f means activity coefficient is at least 20.

>>> class_name("CCCCCCCC=O [octanal] + CCOS(=O)(=O)[O-].CCn1cc[n+](C)c1")
"f"
>>> class_name("CC(C)O [propan-2-ol] + CCOS(=O)(=O)[O-].CCn1cc[n+](C)c1")
"t"
>>> class_name("CCCCCC=O [hexanal] + CCOS(=O)(=O)[O-].CCn1cc[n+](C)c1")
"t"
>>> class_name("CC#N [acetonitrile] + CCOS(=O)(=O)[O-].CCn1cc[n+](C)c1")
"t"

Switching to the query record.
Query block: For this compound, is activity coefficient lower than 20? CCCCCCC=O [heptanal] + CCOS(=O)(=O)[O-].CCn1cc[n+](C)c1
Result block: t
